Target: UniProtKB P32238
Sequence (P32238 whole entry): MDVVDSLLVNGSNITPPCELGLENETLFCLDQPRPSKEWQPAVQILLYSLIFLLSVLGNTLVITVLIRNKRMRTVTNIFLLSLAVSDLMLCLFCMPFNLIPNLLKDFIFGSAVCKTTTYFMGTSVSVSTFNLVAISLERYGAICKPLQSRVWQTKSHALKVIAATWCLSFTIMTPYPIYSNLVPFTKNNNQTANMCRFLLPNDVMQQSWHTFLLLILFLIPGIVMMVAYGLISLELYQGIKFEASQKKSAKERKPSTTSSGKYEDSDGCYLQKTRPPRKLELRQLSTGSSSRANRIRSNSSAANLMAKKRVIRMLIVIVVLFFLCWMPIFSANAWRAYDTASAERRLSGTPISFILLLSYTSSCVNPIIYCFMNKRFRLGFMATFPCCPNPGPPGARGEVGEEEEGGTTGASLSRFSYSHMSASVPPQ
Assay: Agonist activity at human CCK1R expressed in human 1321N1 cells assessed as IP1 accumulation after 1 hr by HTRF assay
Numbered stars: 1 amine (or outer) side, 2 acyl side, 3 side chain; on linkers, the order of the positions; unused ones are H or OH. Square brackets hold non-standard residues; d marks the D form. Peptide text beside a SMILES is read from it. * marks the point of attachment. Phe(4-CH2SO3H) = N[C@@H](Cc1ccc(CS(=O)(=O)O)cc1)C(=O)O; C18 diacid = O=C(O)CCCCCCCCCCCCCCCCC(=O)*; γGlu = O=C(O)[C@H](CCC(=O)[*:2])N[*:1]; βAsp = O=C(O)[C@H](CC(=O)[*:2])N[*:1]; NMeF = CN[C@@H](Cc1ccccc1)C(=O)O; dNMeD = CN[C@H](CC(=O)O)C(=O)O; Nle = CCCC[C@H](N)C(=O)O; AEEA = NCCOCCOCC(=O)O
RECORDED ENDPOINT: pEC50
// field semantics: pEC50 = negative decimal log of concentration (mol/L)

Any idea what its pEC50 is? The compound is CCCC[C@H](NC(=O)[C@H](Cc1ccc(CS(=O)(=O)O)cc1)NC(=O)C[C@H](NC(=O)COCCOCCNC(=O)COCCOCCNC(=O)CC[C@H](NC(=O)CCCCCCCCCCCCCCCCC(=O)O)C(=O)O)C(=O)O)C(=O)NCC(=O)N[C@@H](Cc1c[nH]c2ccccc12)C(=O)N[C@@H](CCCC)C(=O)N(C)[C@H](CC(=O)O)C(=O)N(C)[C@@H](Cc1ccccc1)C(N)=O ({C18 diacid-γGlu-AEEA-AEEA-βAsp}-[Phe(4-CH2SO3H)][Nle]GW[Nle][dNMeD][NMeF]-NH2)
9.50

Each recorded value in this set is attributed to ChEMBL document CHEMBL4368907.
